Reference source for all entries: patent US20200399318A1

Target: E. coli iPGM (Escherichia coli)
Sequence (P37689 whole entry, looked up): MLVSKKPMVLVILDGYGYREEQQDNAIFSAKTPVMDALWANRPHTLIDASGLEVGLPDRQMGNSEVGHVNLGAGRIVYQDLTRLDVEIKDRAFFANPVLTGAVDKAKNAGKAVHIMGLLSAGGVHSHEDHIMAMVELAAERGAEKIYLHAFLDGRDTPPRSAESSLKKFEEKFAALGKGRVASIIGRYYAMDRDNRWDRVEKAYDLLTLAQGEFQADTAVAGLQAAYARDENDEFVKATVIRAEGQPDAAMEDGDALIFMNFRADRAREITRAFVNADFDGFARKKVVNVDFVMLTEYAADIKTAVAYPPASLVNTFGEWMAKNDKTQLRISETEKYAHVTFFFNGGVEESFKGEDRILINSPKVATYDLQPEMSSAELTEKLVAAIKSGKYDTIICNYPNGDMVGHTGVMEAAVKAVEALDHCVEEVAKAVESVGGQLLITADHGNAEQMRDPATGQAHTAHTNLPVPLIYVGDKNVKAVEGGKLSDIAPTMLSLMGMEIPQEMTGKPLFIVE
Experiment: biochemical
Details: read-out: E. coli iPGM Max Inhibition
Where a SMILES comes first, the peptide text is derived from it. Bridges are numbered along the chain shown (N, C = ends). [ ]: non-standard residue; d: D form.
quantity name: Emax

{"compound": "CC(C)C[C@H](NC(=O)[C@H](Cc1ccc(O)cc1)NC(=O)[C@@H]1CSCC(=O)N[C@H](Cc2ccc(O)cc2)C(=O)N[C@@H](CC(=O)O)C(=O)N[C@@H](Cc2ccc(O)cc2)C(=O)N2CCC[C@H]2C(=O)NCC(=O)N[C@@H](CC(=O)O)C(=O)N[C@@H](Cc2ccc(O)cc2)C(=O)N1)C(=O)N[C@@H](Cc1ccc(O)cc1)C(=O)NCC(=O)N[C@H](C(=O)N[C@@H](CO)C(=O)NCC(N)=O)[C@@H](C)O", "Emax": "105%"}

Please give Emax for each item listed below.
1. NC(=O)[C@H](Cc1ccc(O)cc1)NC(=O)[C@@H]1CSCC(=O)N[C@H](Cc2ccc(O)cc2)C(=O)N[C@@H](CC(=O)O)C(=O)N[C@@H](Cc2ccc(O)cc2)C(=O)N2CCC[C@H]2C(=O)NCC(=O)N[C@@H](CC(=O)O)C(=O)N[C@@H](Cc2ccc(O)cc2)C(=O)N1 [Ce-2f] ({CH2CO}-[dY]DYPGDYCY-NH2; thioether N-8)
2. CC(C)C[C@H](NC(=O)[C@H](Cc1ccc(O)cc1)NC(=O)[C@@H]1CSCC(=O)N[C@H](Cc2ccc(O)cc2)C(=O)N[C@@H](CC(=O)O)C(=O)N[C@@H](Cc2ccc(O)cc2)C(=O)N2CCC[C@H]2C(=O)NCC(=O)N[C@@H](CC(=O)O)C(=O)N[C@@H](Cc2c[nH]cn2)C(=O)N1)C(=O)N[C@@H](Cc1ccc(O)cc1)C(=O)NCC(=O)N[C@H](C(=O)N[C@@H](CS)C(=O)NCC(N)=O)[C@@H](C)O
3. C[C@@H](O)[C@H](NC(=O)[C@H](CO)NC(=O)[C@@H]1CSCC(=O)N[C@H](Cc2ccc(O)cc2)C(=O)N2CCC[C@H]2C(=O)N[C@@H](CCC(=O)O)C(=O)N[C@@H](Cc2c[nH]c3ccccc23)C(=O)N2CCC[C@H]2C(=O)N[C@@H](CC(N)=O)C(=O)N1)C(=O)N[C@@H](CS)C(=O)NCC(N)=O [Bm-6] ({CH2CO}-[dY]PEWPNCSTCG-NH2; thioether N-7)

Found:
1. 79.6%
2. 96.5%
3. 77.4%

---

Biological target: B. malayi iPGM (Brugia malayi, UniProt Q4VWF8)
Sequence (Q4VWF8 whole entry, looked up): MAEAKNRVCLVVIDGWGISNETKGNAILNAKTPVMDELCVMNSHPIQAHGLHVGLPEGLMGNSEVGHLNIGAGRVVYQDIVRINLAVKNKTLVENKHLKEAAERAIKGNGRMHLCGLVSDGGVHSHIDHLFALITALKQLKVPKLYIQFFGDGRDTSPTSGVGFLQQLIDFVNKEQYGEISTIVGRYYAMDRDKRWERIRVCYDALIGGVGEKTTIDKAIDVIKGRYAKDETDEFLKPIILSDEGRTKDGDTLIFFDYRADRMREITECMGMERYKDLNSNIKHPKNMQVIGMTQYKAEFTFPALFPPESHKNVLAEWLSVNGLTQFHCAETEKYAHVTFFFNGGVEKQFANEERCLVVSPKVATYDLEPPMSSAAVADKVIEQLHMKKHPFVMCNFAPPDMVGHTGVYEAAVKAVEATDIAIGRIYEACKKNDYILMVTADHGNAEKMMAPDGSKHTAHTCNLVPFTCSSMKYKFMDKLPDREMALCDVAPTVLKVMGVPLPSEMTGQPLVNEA
Assay: biochemical
Settings: read-out: B. malayi iPGM Max Inhibition
Where a SMILES comes first, the peptide text is derived from it. Bridges are numbered along the chain shown (N, C = ends). [ ]: non-standard residue; d: D form.
Task for the reader: assign each of the following compounds its reported Emax.
Answers are plain numbers, in %.

{"compound": "CC(C)C[C@@H]1NC(=O)[C@@H](Cc2ccc(O)cc2)NC(=O)CSC[C@@H](C(=O)N[C@@H](CO)C(=O)N[C@H](C(=O)N[C@@H](CS)C(=O)NCC(N)=O)[C@@H](C)O)NC(=O)[C@H](CC(N)=O)NC(=O)[C@@H]2CCCN2C(=O)[C@H](Cc2c[nH]c3ccccc23)NC(=O)[C@H](CC(=O)O)NC1=O [Bm-5] ({CH2CO}-[dY]LDWPNCSTCG-NH2; thioether N-7)", "Emax (%)": 84.7}

Please look at the items below and tell me Emax for each one, in order.
1. CC(C)C[C@H](NC(=O)[C@H](Cc1ccc(O)cc1)NC(=O)[C@@H]1CSCC(=O)N[C@H](Cc2ccc(O)cc2)C(=O)N[C@@H](CC(=O)O)C(=O)N[C@@H](Cc2ccc(O)cc2)C(=O)N2CCC[C@H]2C(=O)NCC(=O)N[C@@H](CC(=O)O)C(=O)N[C@@H](Cc2c[nH]cn2)C(=O)N1)C(=O)N[C@@H](Cc1ccc(O)cc1)C(=O)NCC(=O)N[C@H](C(=O)N[C@@H](CS)C(=O)NCC(N)=O)[C@@H](C)O [Ce-1]
2. CC(C)C[C@H](NC(=O)[C@H](Cc1ccc(O)cc1)NC(=O)[C@@H]1CSCC(=O)N[C@H](Cc2ccc(O)cc2)C(=O)N[C@@H](CC(=O)O)C(=O)N[C@@H](Cc2ccc(O)cc2)C(=O)N2CCC[C@H]2C(=O)NCC(=O)N[C@@H](CC(=O)O)C(=O)N[C@@H](Cc2ccc(O)cc2)C(=O)N1)C(=O)N[C@@H](Cc1ccc(O)cc1)C(=O)NCC(=O)N[C@H](C(N)=O)[C@@H](C)O [Ce-2b]
3. CC(C)C[C@H](NC(=O)[C@H](Cc1ccc(O)cc1)NC(=O)[C@@H]1CSCC(=O)N[C@H](Cc2ccc(O)cc2)C(=O)N[C@@H](CC(=O)O)C(=O)N[C@@H](Cc2ccc(O)cc2)C(=O)N2CCC[C@H]2C(=O)NCC(=O)N[C@@H](CC(=O)O)C(=O)N[C@@H](Cc2ccc(O)cc2)C(=O)N1)C(=O)N[C@@H](Cc1ccc(O)cc1)C(=O)NCC(=O)N[C@H](C(=O)N[C@@H](CO)C(=O)NCC(N)=O)[C@@H](C)O [Ce-2S]
4. C[C@@H](O)[C@H](NC(=O)[C@H](CO)NC(=O)[C@@H]1CSCC(=O)N[C@H](Cc2ccc(O)cc2)C(=O)N2CCC[C@H]2C(=O)N[C@@H](CCC(=O)O)C(=O)N[C@@H](Cc2c[nH]c3ccccc23)C(=O)N2CCC[C@H]2C(=O)N[C@@H](CC(N)=O)C(=O)N1)C(=O)N[C@@H](CS)C(=O)NCC(N)=O [Bm-6] ({CH2CO}-[dY]PEWPNCSTCG-NH2; thioether N-7)
5. CC(C)[C@@H]1NC(=O)[C@H](C)NC(=O)[C@@H](Cc2ccc(O)cc2)NC(=O)CSC[C@@H](C(=O)N[C@@H](CCCNC(=N)N)C(=O)N[C@H](C(=O)N[C@@H](CS)C(=O)NCC(N)=O)[C@@H](C)O)NC(=O)[C@H](CC(N)=O)NC(=O)[C@@H]2CCCN2C(=O)[C@H](Cc2c[nH]c3ccccc23)NC1=O [Bm-7] ({CH2CO}-[dY]AVWPNCRTCG-NH2; thioether N-7)

Found:
1: 94; 2: 91.8; 3: 97.7; 4: 86.8; 5: 74
